Tested on: HEK-293T
Procedure summary: Multiplex assay against HEK293T;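 for Population Tubulin-Different-Phenotype (%): share of the cells with healthy nuclei that show this phenotype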
Assay type: toxicity, cell-based
Conditions: human, 24 h, 1 µM, compound concentration 1 uM, replicate 2
Assign classes using reported Population Tubulin-Different-Phenotype (%) values and the ranges low: < 30%; middle: ≥ 30% and < 80%; high: ≥ 80%, please.

Worked cases, answers included:
>  <Molecule>
O=C(Nc1ccc(-n2nc(-c3cccnc3)cc2C(F)(F)F)cn1)c1ccc(-c2ccccc2)c(F)c1 [BI 2049]

>  <Test system>
HEK-293T

>  <Category>
low

$$$$
>  <Molecule>
CCn1c(=O)c(-c2ccc(-c3cncs3)cc2Cl)cc2cnc(Nc3ccc(N4CCN(C)CC4)cc3)nc21

>  <Test system>
HEK-293T

>  <Category>
middle

$$$$
>  <Molecule>
O=C(Cc1ccc(-c2ccc(OCCN3CCOCC3)cc2)cn1)NCc1ccccc1 [TIRBANIBULIN]

>  <Test system>
HEK-293T

>  <Category>
middle

$$$$
>  <Molecule>
CN(C)C(=O)C(CCN1CCC(O)(c2ccc(Cl)cc2)CC1)(c1ccccc1)c1ccccc1.Cl [LOPERAMIDE HYDROCHLORIDE]

>  <Test system>
HEK-293T

>  <Category>
high

$$$$
>  <Molecule>
COC(=N)c1nc2ccc3ncnc(Nc4ccc(OC)cc4F)c3c2s1

>  <Test system>
HEK-293T

>  <Category>
low

$$$$

Exercise: read the entry "Cl.Oc1ccc2c3c1O[C@H]1c4[nH]c5c(c4C[C@@]4(O)[C@@H](C2)N(CC2CC2)CC[C@]314)C[C@@]1(O)[C@H]2Cc3ccc(O)c4c3[C@@]1(CCN2CC1CC1)[C@H]5O4" and state which class it falls under. low

Band for the recorded Population Tubulin-Different-Phenotype (%) of "CCc1cccc(CC)c1NC(=O)c1nn(C)c2c1CCc1cnc(Nc3ccc(C(=O)NC4CCN(C)CC4)cc3OC(F)(F)F)nc1-2" ? middle

Could you tell me which band "CCOc1cc(C(=O)N2CCC(N3CCN(C)CC3)CC2)ccc1Nc1ncc2c(n1)N(C1CCCC1)c1ccccc1C(=O)N2C" belongs to? middle

Band for the recorded Population Tubulin-Different-Phenotype (%) of "CCc1cccc(CC)c1NC(=O)c1nn(C)c2c1CCc1cnc(Nc3ccc(N4CCN(C)CC4)cc3OC)nc1-2" ? high

Hey, which category is CCCS(=O)(=O)Nc1ccc(F)c(C(=O)c2c[nH]c3ncc(Cl)cc23)c1F [PLX-4720] in, do you know? low

###

Test system: HEK-293T
Procedure summary: Multiplex assay against HEK293T
Type: toxicity, cell-based
Conditions: human, 24 h, 1 µM, compound concentration 1 uM, replicate 2
Entries annotated with measured Population Healthy Nuclei (%)
A complete answer gives the number and then names the unit.

The cases that follow already have their Population Healthy Nuclei (%) on record.
>  <Compound>
NC(=O)c1cccc(-c2cc(Nc3ccc(OC(F)(F)F)cc3)ncn2)c1

>  <Population Healthy Nuclei (%)>
74%

$$$$
>  <Compound>
O=C(Nc1ccc(-n2nc(-c3cccnc3)cc2C(F)(F)F)cn1)c1ccc(-c2ccccc2)c(F)c1 [BI 2049]

>  <Population Healthy Nuclei (%)>
73%

$$$$
>  <Compound>
CN1CCN(C(=O)C(C)(C)c2ccc(C(=O)Nc3cn4cc(-c5cc(C(C)(C)C)cc(C(C)(C)C)c5)ccc4n3)cc2)CC1 [T3-CLK-N]

>  <Population Healthy Nuclei (%)>
84%

$$$$

# evaluate next
Consider the compound "COc1ccc(S(=O)(=O)N(CCO)c2ccccc2CN(C)C/C=C/c2ccc(Cl)cc2)cc1.O=P(O)(O)O" and give its measured Population Healthy Nuclei (%). 59%

###

Tested on: U2OS
Procedure summary: Multiplex assay against U2OS
Format: toxicity, cell-based
Conditions: human, 12 h, 1 µM, compound concentration 1 uM, replicate 1
Mark class 1 for reported Population Hoechst High Intensity Objects (%) of 6% or greater; mark class 0 for anything smaller.

Decide: is the reported value of Population Hoechst High Intensity Objects (%) for "CNC(=O)c1ccc(Nc2nc(OC3CCCC3)c3c(-c4ccc5nc(C)oc5c4)c[nH]c3n2)c(OC)c1" equal to or greater than 6%? class 0

Given "CCN1CCN(c2ccc(Nc3cc(N(C)C(=O)Nc4c(Cl)c(OC)cc(OC)c4Cl)ncn3)cc2)CC1" , state whether its Population Hoechst High Intensity Objects (%) is at least 6%. class 0

Is Population Hoechst High Intensity Objects (%) at least 6%? Consider "Cc1cc(C)c(S(=O)(=O)N(Cc2ccc(-c3cccc(S(C)(=O)=O)c3)cc2)Cc2ccc(C(F)(F)F)o2)c(C)c1" class 1

Please tell me: is the molecule CCOC(=O)c1c(C)[nH]c2ccc3c(c12)CN1CCc2cc(OC)ccc2C1O3 (stereo not drawn) at or over 6% in terms of Population Hoechst High Intensity Objects (%)? class 0

###

Recorded Population Hoechst High Intensity Objects (%) values for a group of molecules are listed next.
Test system: Fibroblast
Procedure summary: Multiplex assay against human fibroblast
Type: toxicity, cell-based
Conditions: 12 h, 1 µM, compound concentration 1 uM, replicate 1
Give the value, in units of %, as a plain number.

Consider the following illustrative entries.
>  <Molecule>
Cl.Oc1ccc2c3c1O[C@H]1c4[nH]c5c(c4C[C@@]4(O)[C@@H](C2)N(CC2CC2)CC[C@]314)C[C@@]1(O)[C@H]2Cc3ccc(O)c4c3[C@@]1(CCN2CC1CC1)[C@H]5O4

>  <Observed result>
15

$$$$
>  <Molecule>
O=C(Nc1ccc(-c2ccnc(Nc3ccc(N4CCOCC4)cc3)n2)cc1)[C@@H]1CCCN1

>  <Observed result>
13

$$$$
>  <Molecule>
Cl.O=C(c1ccc(Nc2nccc(-c3cc4ccccc4s3)n2)cc1)N1CCC(N2CCCC2)CC1

>  <Observed result>
21

$$$$
>  <Molecule>
CN1C2CCC1CC(OC(c1ccc(F)cc1)c1ccc(F)cc1)C2.Cl (stereo unspecified)

>  <Observed result>
12

$$$$
>  <Molecule>
CCOc1cc(C(=O)N2CCC(N3CCN(C)CC3)CC2)ccc1Nc1ncc2c(n1)N(C1CCCC1)c1ccccc1C(=O)N2C

>  <Observed result>
13

$$$$
>  <Molecule>
CN1CCC(=C2c3ccccc3CC(=O)c3sccc32)CC1.O=C(O)/C=C/C(=O)O [KETOTIFEN FUMARATE]

>  <Observed result>
12

$$$$
>  <Molecule>
CCn1cc(-c2ccnc3[nH]c(-c4cccc(CN(C)C)c4)cc23)c(-c2ccc(NC(=O)N(C)C)cc2)n1

>  <Observed result>
13

$$$$
>  <Molecule>
Cc1ccc2nc(NCCN)c3ncc(C)n3c2c1.O=C(O)C(F)(F)F.O=C(O)C(F)(F)F

>  <Observed result>
11

$$$$

Tell me the measured Population Hoechst High Intensity Objects (%) of "O=C(Cc1ccc(-c2ccc(OCCN3CCOCC3)cc2)cn1)NCc1ccccc1" , please. 16

I have this molecule here, "NC(=O)c1cccc(-c2cc(Nc3ccc(OC(F)(F)F)cc3)ncn2)c1" , and I need its recorded Population Hoechst High Intensity Objects (%). 10

Name the reported Population Hoechst High Intensity Objects (%) value associated with the molecule "CCN1CCN(c2ccc(Nc3cc(N(C)C(=O)Nc4c(Cl)c(OC)cc(OC)c4Cl)ncn3)cc2)CC1" 24

// Population Hoechst High Intensity Objects (%) lookup, key: COc1cc2ncnc(Nc3ccc(F)c(Cl)c3)c2cc1NC(=O)/C=C/CN1CCCCC1 [DACOMITINIB ANHYDROUS] 17

Find the recorded Population Hoechst High Intensity Objects (%) belonging to "CN[C@@H]1C[C@H]2O[C@@](C)([C@@H]1OC)n1c3ccccc3c3c4c(c5c6ccccc6n2c5c31)C(=O)NC4" and report it. 31

For "CCOc1cc2ncc(C#N)c(Nc3ccc(OCc4ccccn4)c(Cl)c3)c2cc1NC(=O)/C=C/CN(C)C" , what is its reported Population Hoechst High Intensity Objects (%)? 14

Need Population Hoechst High Intensity Objects (%), item "CCn1c(=O)c(-c2ccc(-c3cncs3)cc2Cl)cc2cnc(Nc3ccc(N4CCN(C)CC4)cc3)nc21" 17

Using the record for "O=C(Nc1cccnn1)N1CCC(=Cc2cccc(Oc3ccc(C(F)(F)F)cn3)c2)CC1" , report its Population Hoechst High Intensity Objects (%). 10

###

Test system: HEK-293T
Procedure summary: Multiplex assay against HEK293T
Assay type: toxicity, cell-based
Conditions: human, 12 h, 1 µM, compound concentration 1 uM, replicate 2
Population Mitotic Cells (%) for assorted molecules
Give the number; % is assumed, so skip it.

>  <Molecule>
CN1CCN(C(=O)C(C)(C)c2ccc(C(=O)Nc3cn4cc(-c5cc(C(C)(C)C)cc(C(C)(C)C)c5)ccc4n3)cc2)CC1

>  <Population Mitotic Cells (%)>
89

$$$$
>  <Molecule>
CNC(=O)c1ccc(Nc2nc(OC3CCCC3)c3c(-c4ccc5nc(C)oc5c4)c[nH]c3n2)c(OC)c1

>  <Population Mitotic Cells (%)>
62

$$$$
>  <Molecule>
CCCS(=O)(=O)c1nc(NC2CC2)cc(-c2ccc3c(ccn3C3CC(C)(C)NC(C)(C)C3)c2)n1

>  <Population Mitotic Cells (%)>
81

$$$$
>  <Molecule>
C=CCn1c(=O)c2cnc(Nc3ccc(N4CCN(C)CC4)cc3)nc2n1-c1cccc(C(C)(C)O)n1

>  <Population Mitotic Cells (%)>
86

$$$$
>  <Molecule>
O=C(Cc1ccc(-c2ccc(OCCN3CCOCC3)cc2)cn1)NCc1ccccc1

>  <Population Mitotic Cells (%)>
83

$$$$

Fill in the blank: the reported Population Mitotic Cells (%) of "C=C1/C(=C\C=C2/CCC[C@]3(C)[C@@H]([C@H](C)/C=C/[C@H](C)C(C)C)CC[C@@H]23)C[C@@H](O)C[C@@H]1O" is ____. 89

Need Population Mitotic Cells (%), item "CCn1cc(-c2ccnc3[nH]c(-c4cccc(CN(C)C)c4)cc23)c(-c2ccc(NC(=O)N(C)C)cc2)n1" 91

Given "Cc1cn(-c2cc(NC(=O)c3ccc(C)c(Nc4nccc(-c5cccnc5)n4)c3)cc(C(F)(F)F)c2)cn1" , state its recorded Population Mitotic Cells (%). 78

What value of Population Mitotic Cells (%) has been reported for the following molecule? "CN[C@@H]1C[C@H]2O[C@@](C)([C@@H]1OC)n1c3ccccc3c3c4c(c5c6ccccc6n2c5c31)C(=O)NC4" 90

Fill in the blank: the reported Population Mitotic Cells (%) of "O=C(Nc1ccc(Cl)cc1)Nc1cccc(-c2cccc(N3CCCC3)n2)c1" is ____. 82

Item under review: "CNc1cc(Oc2cc(C(=O)Nc3cc(N4CCN(C)CC4)cc(C(F)(F)F)c3)ccc2C)ncn1" . Reported Population Mitotic Cells (%)? 58

# lookup: Population Mitotic Cells (%) of "Cc1cc(C)c(S(=O)(=O)N(Cc2ccc(-c3cccc(S(C)(=O)=O)c3)cc2)Cc2ccc(C(F)(F)F)o2)c(C)c1" 86

Given the entry "O=C(Nc1cccnn1)N1CCC(=Cc2cccc(Oc3ccc(C(F)(F)F)cn3)c2)CC1" , report its measured Population Mitotic Cells (%). 82

Look up Population Mitotic Cells (%): "CCOc1cc2ncc(C#N)c(Nc3ccc(OCc4ccccn4)c(Cl)c3)c2cc1NC(=O)/C=C/CN(C)C" 78

Item CN1C2CCC1CC(OC(c1ccc(F)cc1)c1ccc(F)cc1)C2.Cl (configuration not stated) has what recorded Population Mitotic Cells (%)? 81

Given "O=C(Nc1ccc(-c2ccnc(Nc3ccc(N4CCOCC4)cc3)n2)cc1)[C@@H]1CCCN1" , state its recorded Population Mitotic Cells (%). 86
